Assay: Compound exposure in plasma and liver of HFHC fed male mice
Type: in vivo
Conditions: C57BL/6J, mouse, plasma, oral, 3 mg/kg, 3 mg/kg BID oral, 4 hours after last dose on day 28, read-out: Mean compound exposure, Plasma
Assignment: determine reported concentration at 4 h for the given compounds.
Give me the value, and tack the unit on after it.

Cc1cc(S(=O)[O-])cc2sc(N3[C@@H]4CC[C@H]3C[C@@H](OCc3c(-c5ccccc5OC(F)(F)F)noc3C3CC3)C4)nc12.[Na+]	3.7 ng/mL

Memo: O=S([O-])c1cc(F)c2nc(N3[C@@H]4CC[C@H]3C[C@@H](OCc3c(-c5ccccc5OC(F)(F)F)noc3C3CC3)C4)sc2c1.[Na+] , reported concentration at 4 h: 1 ng/mL
